Molecular target: GST tagged LXRbeta LBD (ligand binding domain) (Homo sapiens, UniProt P55055)
Sequence (P55055 222-460 limits assumed): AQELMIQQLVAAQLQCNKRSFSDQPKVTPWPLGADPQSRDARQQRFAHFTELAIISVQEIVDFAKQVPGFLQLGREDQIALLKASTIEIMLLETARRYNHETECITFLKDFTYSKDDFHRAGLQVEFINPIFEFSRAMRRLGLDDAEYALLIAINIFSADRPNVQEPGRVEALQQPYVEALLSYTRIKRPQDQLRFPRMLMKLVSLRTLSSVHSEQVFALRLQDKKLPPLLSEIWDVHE
Assay: LanthaScreen TR-FRET Liver X Receptor Coactivator Assay, LXR beta-LBD (co-activator recruitment; IP and % Emax relative to T0901317)
Conditions: Inflection Point of co-activator recruitment, LXR beta-LBD, TR-FRET
pEC50: −log10 of the molar value.
Recorded Endpoint: pEC50

A: CN(C)C(=O)c1ccc(N2CCC(CCCN(C)C(=O)[C@](O)(c3cccc(OC(F)F)c3)C(F)(F)F)CC2)nc1Cl
B: COc1cccc([C@@](O)(C(=O)N(C)CCCC2(C)CCN(c3ccc(C(=O)N(C)C)c(Cl)c3)CC2)C(F)(F)F)c1
C: CN(C)C(=O)c1ccc(N2CCC(CCCN(C)C(=O)[C@@](C)(O)c3ccccc3)CC2)nc1Cl
Lookup: Hello, I need these entries ordered by pEC50, highest reading first. Thanks! Reply: labels, ordered per the request.
Found: B, C, A

---

Molecular target: GST tagged LXRbeta LBD (ligand binding domain) (Homo sapiens, UniProt P55055)
Construct: purchased Invitrogen pv4658.pps
Assay: LanthaScreen TR-FRET Liver X Receptor Coactivator Assay, LXR beta-LBD (co-activator recruitment; IP and % Emax relative to T0901317)
Format: biochemical
Conditions: efficacy at max dose in relation to reference T0901317, LXR beta-LBD; read-out: LXR beta actiivty at max dose (%)
Recorded Endpoint: Emax (%)

a: CN(C)C(=O)c1ccc(N2CCC(CCCN(C)C(=O)[C@](O)(c3cccc(OC(F)F)c3)C(F)(F)F)CC2)nc1Cl [Example 1-51]
b: CN(C)C(=O)c1ccc(N2CCC([C@@H]3C[C@H]3CNC(=O)[C@@](O)(c3ccccc3)C(F)(F)F)CC2)cc1Cl [Example 15-17]
c: CN(C)C(=O)c1ccc(N2CCC(CCCN(C)C(=O)[C@]3(c4cccc(Cl)c4)CCCO3)CC2)nc1Cl [Example 1-62]
Lookup: Sort low-to-high on Emax, please. Reply: labels, ordered per the request.
Found: c, a, b

---

Biological target: GST tagged LXRalpha LBD (ligand binding domain) (Homo sapiens, UniProt Q13133)
Construct: purchased Invitrogen pv4655
Sequence (Q13133 209-447 limits assumed): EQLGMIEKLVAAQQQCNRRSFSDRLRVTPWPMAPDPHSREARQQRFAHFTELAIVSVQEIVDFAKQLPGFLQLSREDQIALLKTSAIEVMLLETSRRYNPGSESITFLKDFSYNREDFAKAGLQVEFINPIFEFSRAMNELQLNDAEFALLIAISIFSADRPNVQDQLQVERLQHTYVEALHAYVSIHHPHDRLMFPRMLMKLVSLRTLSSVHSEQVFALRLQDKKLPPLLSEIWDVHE
Test: LanthaScreen TR-FRET Liver X Receptor Coactivator Assay, LXR alpha-LBD (co-activator recruitment; IP and % Emax relative to T0901317)
Assay type: biochemical
Conditions: efficacy at max dose in relation to reference T0901317, LXR alpha-LBD
Excerpt: […]
Recorded Endpoint: LXR alpha actiivty at max dose (%)

// worked examples, LXR alpha actiivty at max dose (%) included
[[record]]
compound = "CN(C)C(=O)c1ccc(N2CCC(CCCN(C)C(=O)[C@](O)(c3ccccc3)C(F)(F)F)CC2)nc1Cl [Example 1-26]"
u = "%"
assay_result = 6

[[record]]
compound = "CN(C)C(=O)c1ccc(N2CCC(CCCN(C)C(=O)C(O)(c3ccccc3)C(F)(F)F)CC2)cc1Cl (single isomer, unassigned) [Example 4-6]"
u = "%"
assay_result = 15

[[record]]
compound = "COc1cccc([C@@](O)(C(=O)NCCCC2CCN(c3ccc(C(=O)N(C)C)c(Cl)n3)CC2)C(F)(F)F)c1 [Example 5-23]"
u = "%"
assay_result = 16


1: CN(C)C(=O)c1ccc(N2CCC(CCCN(C)C(=O)C(O)(c3ccccc3)C(F)(F)F)CC2)cc1Cl (single isomer, unassigned) [Example 4-7]
2: CN(C)C(=O)c1ccc(N2CCC(CCCN(C)C(=O)[C@](O)(c3ccccc3)C(F)(F)F)CC2)nc1Cl [Example 1-1]
3: CN(C)C(=O)c1ccc(N2CCC([C@@H]3C[C@H]3CNC(=O)[C@@](O)(c3ccccc3)C(F)(F)F)CC2)cc1Cl [Example 15-18]
4: CN(C)C(=O)c1ccc(N2CCC([C@@H]3C[C@H]3CNC(=O)[C@@](O)(c3ccccc3)C(F)(F)F)CC2)cc1Cl [Example 15-17]
Lookup: Arrange the 4 compounds by rising LXR alpha actiivty at max dose (%), starting with the smallest. Reply: labels, ordered per the request.
Found: 4, 3, 1, 2
(4: 0%, 3: 8%, 1: 12%, 2: 27%)
